assay_comment: chemical genetic growth profiling, strain panel (AID 1159580);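 further: tested at 20 µM; growth read once vehicle control cultures reached saturation at 30 °C; 1 = growth at the plate median or of vehicle wells; lower values mean less growth of the strain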
setup_conditions: S. cerevisiae deletion strains, growth OD, locus YDL040C, strain nat1
About 2,000 (36%) of roughly 5,500 compounds were called active. Inconclusive results (about 18%) are left out. No stated cut-off is given here; in the data, active means normalized growth mostly below about 0.91 (no sharp cut-off); inconclusive means no clear call, values can overlap the other calls; inactive means mostly above about 0.92. The list shows a part of the results.
Just give me one of these, please: active, inactive

Answered cases to consult:
CC(=O)NS(=O)(=O)c1ccc(NC(=O)c2ccccc2C(=O)O)cc1 | inactive
Cc1onc(-c2c(Cl)cccc2Cl)c1C(=O)N[C@@H]1C(=O)N2[C@@H]1SC(C)(C)[C@@H]2C(=O)O | inactive
CC1(C)S[C@@H]2[C@H](NC(=O)[C@H](C(=O)O)c3cccs3)C(=O)N2[C@H]1C(=O)O | inactive

# next molecule below
Identify the outcome logged in this assay for the molecule shown: NC(N)=NC(N)=Nc1ccccc1
inactive

----------
assay_comment: chemical genetic growth profiling, strain panel (AID 1159580);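 further: tested at 20 µM; growth read once vehicle control cultures reached saturation at 30 °C; 1 = growth at the plate median or of vehicle wells; lower values mean less growth of the strain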
setup_conditions: S. cerevisiae deletion strains, growth OD, locus YDR101C, strain arx1, active compounds read low
In all, about 5,500 compounds went through this assay and about 2,000 (36%) were called active. Roughly 18% stayed inconclusive and do not appear here. This is one part of the list.
readout_name: normalized growth
Give bare numbers.

CO[C@H]1C[C@H](O[C@H]2[C@H](C)[C@@H](OC3O[C@H](C)C[C@H](N(C)C)[C@H]3OC(C)=O)[C@@H](C)C[C@]3(CO3)C(=O)[C@H](C)[C@@H](OC(C)=O)[C@@H](C)[C@@H](C)OC(=O)[C@@H]2C)O[C@@H](C)[C@@H]1OC(C)=O (some centres not stated) | 1.01
NC[C@H]1O[C@H](O[C@H]2C(O[C@@H]3O[C@H](CO)[C@@H](O)[C@H]3O)[C@@H](O)[C@H](N)C[C@@H]2N)[C@H](N)[C@@H](O)[C@@H]1O (some centres not stated) | 0.972
CC1=C(O)C(=O)C=C2C1=CC=C1[C@@]2(C)CC[C@@]2(C)[C@@H]3C[C@](C)(C(=O)O)CC[C@]3(C)CC[C@]12C | 0.665
CC[C@H]1OC(=O)[C@H](C)[C@@H](O[C@H]2C[C@@](C)(OC)[C@@H](O)[C@H](C)O2)[C@H](C)[C@@H](O[C@@H]2O[C@H](C)C[C@H](N(C)C)[C@H]2O)[C@](C)(O)C[C@@H](C)[C@@H]2N[C@@H](COCCOC)O[C@H]([C@H]2C)[C@]1(C)O | 0.984
COC(=O)[C@]1(C)CC[C@]2(C)CC[C@]3(C)C4=CC=C5C(=CC(=O)C(O)=C5C)[C@]4(C)CC[C@@]3(C)[C@@H]2C1 | 0.935

Below are 3 compounds. Give each one its normalized growth.
1. COc1ccc2c(c1OC)OC[C@@H](c1ccc(OC)c(OC)c1OC)C2
2. c1ccc([C@H]2CN3CCSC3=N2)cc1
3. NC[C@H]1O[C@H](O[C@H]2[C@H](O)[C@@H](O[C@H]3O[C@H](CO)[C@@H](O)[C@H](N)[C@H]3O)[C@H](N)C[C@@H]2N)[C@H](N)C[C@@H]1O

1. 1
2. 1
3. 1.02

----------
Consider the following compounds; for each one, report its normalized growth.
assay_comment: chemical genetic growth profiling, strain panel (AID 1159580);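 further: tested at 20 µM; growth read once vehicle control cultures reached saturation at 30 °C; 1 = growth at the plate median or of vehicle wells; lower values mean less growth of the strain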
setup_conditions: S. cerevisiae deletion strains, growth OD, locus YBL061C, strain skt5, active compounds read low
About 2,000 (36%) of roughly 5,500 compounds were called active. About 18% were inconclusive and are not listed. The list shows a part of the results.
Give bare numbers.

Recorded normalized growth, per entry:
OCc1c[nH]c2ccccc12 | 0.969
NCCc1c[nH]c2ccccc12 | 0.959
O=C(O)c1cc(=O)c2c(Cl)cc(Cl)cc2[nH]1 | 1.01
CC(=O)OC1CCC2(C)C3CC(=O)C4(C)C(CC5OC6(CCC(C)CO6)[C@@H](C)C54)C3CC[C@H]2C1 (some centres not stated) | 0.982
c1ccc2c(Cc3c[nH]c4ccccc34)c[nH]c2c1 | 0.51

Below are 2 compounds. Give each one its normalized growth.
1. Cc1cc(=O)n(-c2ccccc2)n1C
2. CNC(Cc1c[nH]c2ccccc12)C(=O)O (configuration not stated)

0.992
0.986
